Readout Name: melting point

smiles_representation=Cc1c(Br)cccc1S(=O)(=O)Cl readout_name="melting point" test_value="64 to 66 °C"
smiles_representation=CC(C)CCNS(=O)(=O)c1ccc(N)cc1 readout_name="melting point" test_value="119 to 121 °C"
smiles_representation=COC(=O)c1noc(C)c1C(C)=O readout_name="melting point" test_value="36 to 38 °C"
smiles_representation=COc1ccccc1-c1cc(N)on1 readout_name="melting point" test_value="93 to 95 °C"

// CS(=O)(=O)Nc1cccc(I)c1 : melting point value = 119 to 121 °C

Measured melting point, COC(=O)c1ccc2n[nH]c(=O)n2c1 : 225 to 227 °C

Noted for CN1CCN(C(=O)c2ccc(N)cc2)CC1 : its melting point reads 135 to 137 °C

melting point for O=[N+]([O-])c1cccc2c1CCN2 is 111 to 113 °C

The compound identified as O=Cc1ccnc(-c2ccccc2)n1 registered its melting point at 116 to 118 °C

response.value for CC1(C)NC(=O)N(CC#N)C1=O (field: melting point) = 155 to 157 °C

melting point reported for this compound Cc1ccc(-c2nc(CC(=O)O)cs2)c(C)c1 : 104 to 106 °C

Please fill in: melting point reported for CCOC(=O)c1c[nH]cc(C)c1=O = 225 to 227 °C
